# target of assay: human CD33 on primary human dendritic cells (human, UniProt P20138 18-364)
# Sequence (P20138 18-364): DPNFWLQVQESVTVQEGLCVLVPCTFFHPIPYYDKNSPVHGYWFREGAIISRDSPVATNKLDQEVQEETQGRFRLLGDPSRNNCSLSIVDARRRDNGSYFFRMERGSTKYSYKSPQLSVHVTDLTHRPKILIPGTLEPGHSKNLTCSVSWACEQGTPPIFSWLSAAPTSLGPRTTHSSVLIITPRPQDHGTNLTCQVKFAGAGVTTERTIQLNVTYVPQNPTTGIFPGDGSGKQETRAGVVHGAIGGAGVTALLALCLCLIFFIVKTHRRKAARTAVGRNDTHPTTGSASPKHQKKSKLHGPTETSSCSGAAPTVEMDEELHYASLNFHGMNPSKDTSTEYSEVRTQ
# experiment: cell-based or functional assay
Parameter: Fold increase in potency compared to 6C7H5. Scope: all listed entries.
Please respond with the number in fold and leave the unit unwritten.

Here are 5 binders together with their reported answers.
| binder | value observed |
| --- | --- |
| anti-CD33 antibody 6C7H17 (antibody, V domains shown, VH/VL only) VH: EVQLVESGGGLVQPGGSLRLSCAGSGFTFSNYYMNWVRQAPGKGLEWVAEIRLKSNNYVTNYAASVKGRFTISRDDSKNSVYLQMNSLKTEDTGVYYCTRAGYYVPFAYWGQGTLVTVSS VL: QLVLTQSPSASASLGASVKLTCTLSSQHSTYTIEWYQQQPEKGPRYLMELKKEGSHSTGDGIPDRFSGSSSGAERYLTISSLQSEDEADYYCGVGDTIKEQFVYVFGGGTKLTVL | 0.8 |
| anti-CD33 antibody 6C7H13 (antibody, V domains shown, VH/VL only) VH: EVQLVESGGGLVQPGGSLRLSCAGSGFTFSNYFMNWVRQAPGKGLEWVAEIRLKSNNYVTNYAASVKGRFTISRDDSKNSVYLQMNSLKTEDTGVYYCTRAGYYVPFAYWGQGTLVTVSS VL: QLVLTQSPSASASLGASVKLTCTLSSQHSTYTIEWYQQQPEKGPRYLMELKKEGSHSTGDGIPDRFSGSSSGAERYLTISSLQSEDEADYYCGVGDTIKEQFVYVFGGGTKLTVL | 0.01 |
| anti-CD33 antibody 6C7H20 (antibody, V domains shown, VH/VL only) VH: EVQLVESGGGLVQPGGSLRLSCAGSGFTFSNYPMNWVRQAPGKGLEWVAEIRLKSNNYVTNYAASVKGRFTISRDDSKNSVYLQMNSLKTEDTGVYYCTRAGYYVPFAYWGQGTLVTVSS VL: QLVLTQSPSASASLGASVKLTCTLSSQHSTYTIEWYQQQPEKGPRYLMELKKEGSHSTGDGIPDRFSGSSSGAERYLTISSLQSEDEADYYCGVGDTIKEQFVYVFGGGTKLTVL | 1 |
| anti-CD33 antibody 6C7H15 (antibody, V domains shown, VH/VL only) VH: EVQLVESGGGLVQPGGSLRLSCAGSGFTFSNYSMNWVRQAPGKGLEWVAEIRLKSNNYVTNYAASVKGRFTISRDDSKNSVYLQMNSLKTEDTGVYYCTRAGYYVPFAYWGQGTLVTVSS VL: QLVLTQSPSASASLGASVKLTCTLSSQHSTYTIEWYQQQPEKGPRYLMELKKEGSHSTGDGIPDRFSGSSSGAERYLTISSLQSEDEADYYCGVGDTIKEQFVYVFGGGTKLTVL | 0.2 |
| anti-CD33 antibody 6C7H10 (antibody, IgG1, V domains shown, VH/VL only; also called 6C7H10 IgG1) VH: EVQLVESGGGLVQPGGSLRLSCAASGFTFSEYAMNWVRQAPGKGLEWVGEIRLKSNNYVTNYAASVKGRFTISRDDSKNSVYLQMNSLKTEDTGVYYCTRAGYYVPFAYWGQGTLVTVSS VL: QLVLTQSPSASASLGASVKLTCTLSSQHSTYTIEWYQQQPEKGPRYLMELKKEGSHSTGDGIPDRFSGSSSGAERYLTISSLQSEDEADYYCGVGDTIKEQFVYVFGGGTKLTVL | 0.1 |

As a next step, examine the binder that follows.
Quick one: Fold increase in potency compared to 6C7H5 of anti-CD33 antibody 6C7H14 (antibody, V domains shown, VH/VL only) VH: EVQLVESGGGLVQPGGSLRLSCAGSGFTFSNYAMNWVRQAPGKGLEWVAEIRLKSNNYVTNYAASVKGRFTISRDDSKNSVYLQMNSLKTEDTGVYYCTRAGYYVPFAYWGQGTLVTVSS VL: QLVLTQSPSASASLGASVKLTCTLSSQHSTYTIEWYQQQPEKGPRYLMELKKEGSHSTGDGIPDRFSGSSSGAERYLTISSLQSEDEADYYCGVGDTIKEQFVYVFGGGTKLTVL ?
0.3
